Readings of Papp at 18 hours, 50 µM for the listed molecules
assay: PAMPA (parallel artificial membrane permeability assay); format: in vitro ADME; conditions: PAMPA; membrane permeation rate (Pe); 50 mM MOPSO buffer pH 6.5 with 5.0% glycocholic acid, 37° C., 18 hours; read-out: iPAMPA Pe
Starred links: 1 amine or outer side, 2 acyl side, 3 side chain; linkers in the order of their positions; H or OH if unused. Positions of bridges follow the written chain, without caps; N, C: chain ends. Non-standard residues stand in square brackets, D forms with d. Residues, ends and D or L forms follow the SMILES beside them. *: point of attachment. NMeF = CN[C@@H](Cc1ccccc1)C(=O)O; NMeGABA = CN(CCCC(=O)[*:2])[*:1]; NMeI = CC[C@H](C)[C@H](NC)C(=O)O; NMeβAla = CN(CCC(=O)[*:2])[*:1]; NMeL = CN[C@@H](CC(C)C)C(=O)O; NMeV = CN[C@H](C(=O)O)C(C)C; NMeA = CN[C@@H](C)C(=O)O; Piperidide = C1CCN(*)CC1; β3hA = C[C@H](N)CC(=O)O; Sar = CNCC(=O)O
experimentalReadout: Papp at 18 hours, 50 µM (×10⁻⁶ cm/s)

>>> experimentalvalue("CC[C@H](C)[C@@H]1NC(=O)[C@H](Cc2ccccc2)N(C)C(=O)[C@H]([C@@H](C)O)NC(=O)[C@H](C(C)C)N(C)C(=O)[C@H](CC(C)C)NC(=O)[C@H](CC(C)C)N(C)C(=O)CCN(C)C(=O)C[C@@H](C(=O)N2CCCCC2)NC(=O)[C@H](C)NC(=O)[C@H](C)N(C)C(=O)[C@H](Cc2ccccc2)NC1=O [DP-238] ([NMeβAla][NMeL]L[NMeV]T[NMeF]IF[NMeA]AD-Piperidide; lactam N-11)")
19
>>> experimentalvalue("CC[C@H](C)[C@H]1C(=O)N[C@@H](Cc2ccccc2)C(=O)N[C@H](C(=O)N2CCCCC2)CC(=O)N[C@H](C)C(=O)N[C@@H](C)C(=O)N(C)[C@@H](CC(C)C)C(=O)N(C)[C@@H](CC(C)C)C(=O)N(C)[C@@H](Cc2ccccc2)C(=O)N[C@@H]([C@@H](C)O)C(=O)N(C)[C@@H](C)C(=O)N(C)[C@@H](C(C)C)C(=O)N1C [DP-229] ([dA]A[NMeL][NMeL][NMeF]T[NMeA][NMeV][NMeI]FD-Piperidide; lactam N-11)")
33
>>> experimentalvalue("CC(C)C[C@H]1C(=O)N[C@H](C(=O)N(C)[C@@H](Cc2ccccc2)C(=O)N[C@@H](C)C(=O)N2CCCCC2)CC(=O)N(C)CCCC(=O)N[C@@H](C(C)C)C(=O)N(C)[C@@H](Cc2ccccc2)C(=O)N(C)[C@@H](CC(C)C)C(=O)N[C@@H]([C@@H](C)O)C(=O)N(C)[C@@H](C)C(=O)N(C)CC(=O)N1C [DP-385] ([NMeGABA]V[NMeF][NMeL]T[NMeA][Sar][NMeL]D[NMeF]A-Piperidide; lactam N-9)")
18
>>> experimentalvalue("CC(C)C[C@@H]1NC(=O)[C@H](CC(C)C)N(C)C(=O)[C@H](C)NC(=O)[C@H](C(C)C)N(C)C(=O)CN(C)C(=O)[C@H]([C@@H](C)O)NC(=O)[C@H](C)N(C)C(=O)[C@H](CC(C)C)N(C)C(=O)[C@@H](C)NC(=O)C[C@H](C)NC1=O [DP-818] (cyclo(A[NMeL]L[β3hA][dA][NMeL][NMeA]T[Sar][NMeV]))")
2
>>> experimentalvalue("CC[C@H](C)[C@@H]1NC(=O)[C@H](C)N(C)C(=O)[C@H](CC(C)C)N(C)C(=O)CCCN(C)C(=O)C[C@@H](C(=O)N(C)[C@@H](Cc2ccccc2)C(=O)N[C@@H](C)C(=O)N2CCCCC2)NC(=O)[C@H](CC(C)C)N(C)C(=O)[C@H](C)N(C)C(=O)[C@H]([C@@H](C)O)NC(=O)[C@H](Cc2ccccc2)N(C)C(=O)[C@H](Cc2ccccc2)N(C)C(=O)[C@H](CC(C)C)N(C)C1=O [DP-366] ([NMeGABA][NMeL][NMeA]I[NMeL][NMeF][NMeF]T[NMeA][NMeL]D[NMeF]A-Piperidide; lactam N-11)")
14

These measurements were taken from patent US9409952B2.
